- target_desc: Caspase-1 (Homo sapiens)
- Sequence (P29466 whole entry): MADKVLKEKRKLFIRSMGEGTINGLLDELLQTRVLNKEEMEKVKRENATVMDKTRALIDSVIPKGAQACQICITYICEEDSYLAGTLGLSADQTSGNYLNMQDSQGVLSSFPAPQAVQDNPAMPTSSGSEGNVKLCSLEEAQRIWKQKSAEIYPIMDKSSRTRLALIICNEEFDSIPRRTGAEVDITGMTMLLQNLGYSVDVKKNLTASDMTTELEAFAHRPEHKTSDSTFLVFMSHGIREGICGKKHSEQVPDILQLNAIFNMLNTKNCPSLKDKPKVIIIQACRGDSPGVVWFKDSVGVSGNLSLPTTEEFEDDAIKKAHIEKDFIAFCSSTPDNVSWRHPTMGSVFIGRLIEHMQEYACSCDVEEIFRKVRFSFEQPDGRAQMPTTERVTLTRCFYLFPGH
- test_summary: Inhibitory concentration against recombinant human caspase-1 in neuronal precursor (NT2) cells
pIC50: −log10 of the molar value.
result_type: pIC50

Consider the following illustrative entries.
1) COc1ccc(S(C)(=O)=O)cc1CC(=O)N[C@H](C(=O)N[C@@H](CC(=O)O)C(=O)CSCc1ccccc1)C(C)C	5.80
2) CCC(C(=O)N[C@@H](CC(=O)O)C(=O)CNCN(CC)CC)n1ccnc(NCc2nonc2C)c1=O (some centres undefined)	5.94

A. CCC(C(=O)N[C@@H](CC(=O)O)C(=O)CSCc1ccccc1)n1ccnc(NCc2nc(C)no2)c1=O (some centres undefined)
B. CCC(C(=O)N[C@@H](CC(=O)O)C(=O)CSCc1ccccc1)n1ccnc(NCc2nccs2)c1=O (some centres undefined)
C. CC(=O)N[C@@H](CC(=O)O)C(=O)N[C@@H](CCC(=O)O)C(=O)N[C@H](C(=O)N[C@@H](CC(=O)O)C(=O)CCCc1ccccc1)C(C)C
D. CCC(C(=O)N[C@@H](CC(=O)O)C(C)=O)n1cc(C(C)(C)C)nc(NCc2nonc2C)c1=O (some centres undefined)
E. CCCCCN(C)CNCC(=O)[C@H](CC(=O)O)NC(=O)C(CC)n1ccnc(NCc2nonc2C)c1=O (some centres undefined)
hey, can you rank those compounds up there by pIC50? biggest number first please Answer format: the labels, ordered as requested.
E, B, C, A, D

A. CCC(C(=O)N[C@@H](CC(=O)O)C(=O)CSCc1ccccc1)n1ccnc(NCCc2nc(C)no2)c1=O (some centres undefined)
B. CCC(C(=O)N[C@@H](CC(=O)O)C(=O)CSCc1ccccc1)n1ccnc(NCc2cncs2)c1=O (some centres undefined)
Which value of pIC50 is numerically greater: that of A or that of B ? Mark your selection by writing its label.
B

----------
- target_desc: Caspase-3 (Homo sapiens, UniProt P42574)
- Sequence (P42574 whole entry): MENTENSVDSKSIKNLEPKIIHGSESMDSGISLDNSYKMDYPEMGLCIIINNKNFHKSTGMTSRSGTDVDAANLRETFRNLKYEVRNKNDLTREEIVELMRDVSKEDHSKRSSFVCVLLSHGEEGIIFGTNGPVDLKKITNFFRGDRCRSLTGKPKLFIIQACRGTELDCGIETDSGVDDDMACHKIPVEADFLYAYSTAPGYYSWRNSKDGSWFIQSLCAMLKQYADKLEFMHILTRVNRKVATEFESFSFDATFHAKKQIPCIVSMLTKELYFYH
- test_summary: Inhibitory concentration against recombinant human caspase-3 in neuronal precursor (NT2) cells
pKi: −log10 of the molar value.
result_type: pKi

I. CCCCCCN(C)CC(=O)C(CC(=O)O)NC(=O)C(CC)n1cc(C(C)(C)C)nc(NCc2nonc2C)c1=O (configuration not stated)
II. CCCCCN(C)CC(=O)C(CC(=O)O)NC(=O)C(CC)n1cc(C(C)(C)C)nc(NCc2nonc2C)c1=O (configuration not stated)
Which gives the smaller pKi number: I or II ? Mark your selection by writing its label.
I
